target-of-assay: c-kit mutant D816V (Homo sapiens, UniProt P10721, D816V/DEL694-753)
Construct: residues 551-934, kinase insertion domain residues 694-753 deleted; 6x-histidine (N); made in house; host or cells: E. coli Arctic Express (DE3) RIL (Stratagene)
Sequence (P10721 with tags, fused parts or gaps DEL694-753/D816V): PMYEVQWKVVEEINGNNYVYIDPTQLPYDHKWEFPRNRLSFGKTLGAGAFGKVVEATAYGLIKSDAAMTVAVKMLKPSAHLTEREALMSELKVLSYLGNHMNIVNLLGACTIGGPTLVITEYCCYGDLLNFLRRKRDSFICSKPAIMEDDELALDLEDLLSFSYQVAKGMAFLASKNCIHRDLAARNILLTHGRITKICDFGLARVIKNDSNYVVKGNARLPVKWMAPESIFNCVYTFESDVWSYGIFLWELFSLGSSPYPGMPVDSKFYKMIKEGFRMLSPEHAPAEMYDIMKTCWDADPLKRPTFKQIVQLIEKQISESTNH
experimental-protocol: c-Kit mutant D816V biochemical assay, AlphaScreen
measurement-context: c-kit D816V biochemical inhibitory activity; read-out: Biochemical activity (IC50 μM) Kit D816V
endpoint: IC50

IN: Fill in: IC50 of COc1cccc([C@H](C)NC(=O)N2CCN(c3ncnc4cc(C5=CC(C)(C)NC(C)(C)C5)sc34)CC2)c1 is ___
OUT: 0.0001 to 1 µM

IN: Fill in: IC50 of O=C(NCCc1ccc(Cl)cc1)N1CCN(c2ncnc3[nH]c(-c4ccc(F)cc4)cc23)CC1 is ___
OUT: 0.0001 to 1 µM

IN: Fill in: IC50 of Cc1cc2c(-c3ccc(NS(=O)(=O)c4cccc(OC(F)(F)F)c4)cc3)ncnc2[nH]1 is ___
OUT: 1 to 10 µM

IN: Fill in: IC50 of Cc1nc(C)c(-c2cc3c(N4CCC(NS(=O)(=O)c5ccc(OC(F)(F)F)cc5)CC4)ncnc3[nH]2)s1 is ___
OUT: 0.0001 to 1 µM

IN: Fill in: IC50 of C[C@H](NC(=O)N1CCN(c2ncnc3[nH]c(-c4ccc(C#N)cc4)cc23)C[C@H]1C)c1cccc(OC(F)F)c1 is ___
OUT: 0.0001 to 1 µM

IN: Fill in: IC50 of CC(=O)Nc1ccc(-c2cc3c(N4CCN(C(=O)Nc5ccc(OC(F)(F)F)cc5)CC4)ncnc3[nH]2)cn1 is ___
OUT: 0.0001 to 1 µM

Now for another entry.
IN: Fill in: IC50 of Cc1cc2c(-c3ccc(NS(=O)(=O)c4cnn(C(F)F)c4)cc3)ncnc2[nH]1 is ___
OUT: 1 to 10 µM

* * *

target-of-assay: c-kit mutant D816V (Homo sapiens, UniProt P10721, D816V/DEL694-753)
Construct: residues 551-934, kinase insertion domain residues 694-753 deleted; 6x-histidine (N); made in house; host or cells: E. coli Arctic Express (DE3) RIL (Stratagene)
experimental-protocol: c-Kit mutant D816V biochemical assay, AlphaScreen
measurement-context: c-kit D816V biochemical inhibitory activity; read-out: Biochemical activity (IC50 μM) Kit D816V
endpoint: IC50

Examples from the recorded data:
IN: What reported IC50 corresponds to Cc1cc2c(N3CCC(NS(=O)(=O)c4ccc(C(C)C)cc4)CC3)ncnc2[nH]1 on c-kit mutant D816V (Homo sapiens, UniProt P10721, D816V/DEL694-753)?
OUT: 10 to 200 µM

IN: What reported IC50 corresponds to CCc1ccc(S(=O)(=O)NC2CCN(c3ncnc4[nH]c(-c5cn(C)nc5C)cc34)CC2)cc1 on c-kit mutant D816V (Homo sapiens, UniProt P10721, D816V/DEL694-753)?
OUT: 0.0001 to 1 µM

IN: What reported IC50 corresponds to COc1cccc([C@H](C)NC(=O)N2CC=C(c3ncnc4cc(-c5cn(C)nc5C)sc34)CC2)c1 on c-kit mutant D816V (Homo sapiens, UniProt P10721, D816V/DEL694-753)?
OUT: 0.0001 to 1 µM

Next:
IN: What reported IC50 corresponds to COc1ccc(CNC(=O)N2CCN(c3ncnc4[nH]c(-c5ccc(F)cc5)cc34)CC2)cc1 on c-kit mutant D816V (Homo sapiens, UniProt P10721, D816V/DEL694-753)?
OUT: 10 to 200 µM

IN: What reported IC50 corresponds to C[C@H](NC(=O)N1CCN(c2ncnc3cc(C4=CCN(C(=O)C5CC5)CC4)sc23)CC1(C)C)c1cccc(Cl)c1 on c-kit mutant D816V (Homo sapiens, UniProt P10721, D816V/DEL694-753)?
OUT: 0.0001 to 1 µM

IN: What reported IC50 corresponds to NC(=O)N1CCN(c2ncnc3[nH]c(-c4cccnc4)cc23)CC1 on c-kit mutant D816V (Homo sapiens, UniProt P10721, D816V/DEL694-753)?
OUT: 1 to 10 µM

IN: What reported IC50 corresponds to CCS(=O)(=O)Nc1ccc(-c2ncnc3[nH]c(-c4ccc(F)cc4)cc23)c(F)c1 on c-kit mutant D816V (Homo sapiens, UniProt P10721, D816V/DEL694-753)?
OUT: 0.0001 to 1 µM

IN: What reported IC50 corresponds to C[C@H](NC(=O)N1CCN(c2ncnc3[nH]c(-c4ccc(C#N)cc4)cc23)C[C@H]1C)c1cccc(F)c1 on c-kit mutant D816V (Homo sapiens, UniProt P10721, D816V/DEL694-753)?
OUT: 0.0001 to 1 µM

* * *

Overview of reported IC50 across a group of compounds:
target-of-assay: c-kit kinase (Homo sapiens)
Construct: The c-kit (or kinase domain thereof) is an active kinase in AlphaScreen; poly-Histidine tag (in-house protein only) (cleaved yes); host or cells: E. coli BL21(DE3)RIL, co-expressed with PTP1B
experimental-protocol: c-Kit biochemical assay, AlphaScreen, 10 μM ATP
measurement-context: c-kit biochemical inhibitory activity; read-out: Biochemical activity (IC50 μM) Kit

IN: Fill in: IC50 of NS(=O)(=O)c1ccc(-c2cc3c(N4CCN(C(=O)Nc5ccc(OC(F)(F)F)cc5)CC4)ncnc3[nH]2)cc1 is ___
OUT: 0.0001 to 1 µM

IN: Fill in: IC50 of c1nc(N2CCNCC2)c2cc[nH]c2n1 is ___
OUT: 10 to 200 µM

Next:
IN: Fill in: IC50 of O=C(NCc1ccc(F)cc1)N1CCN(c2ncnc3cc(-c4cnn(CCN5CCOCC5)c4)sc23)CC1 is ___
OUT: 1 to 10 µM

IN: Fill in: IC50 of Cc1n[nH]c2ncnc(-c3ccc(NS(=O)(=O)c4ccc(Cl)cc4)cc3)c12 is ___
OUT: 1 to 10 µM

IN: Fill in: IC50 of N#Cc1ccc(-c2cc3c(N4CCC(NS(=O)(=O)c5ccc(OC(F)(F)F)cc5)CC4)ncnc3[nH]2)cc1 is ___
OUT: 10 to 200 µM

* * *

target-of-assay: c-kit kinase (Homo sapiens, UniProt P10721)
Construct: The c-kit (or kinase domain thereof) is an active kinase in AlphaScreen; poly-Histidine tag (in-house protein only) (cleaved yes); host or cells: E. coli BL21(DE3)RIL, co-expressed with PTP1B
Sequence (P10721 26-976): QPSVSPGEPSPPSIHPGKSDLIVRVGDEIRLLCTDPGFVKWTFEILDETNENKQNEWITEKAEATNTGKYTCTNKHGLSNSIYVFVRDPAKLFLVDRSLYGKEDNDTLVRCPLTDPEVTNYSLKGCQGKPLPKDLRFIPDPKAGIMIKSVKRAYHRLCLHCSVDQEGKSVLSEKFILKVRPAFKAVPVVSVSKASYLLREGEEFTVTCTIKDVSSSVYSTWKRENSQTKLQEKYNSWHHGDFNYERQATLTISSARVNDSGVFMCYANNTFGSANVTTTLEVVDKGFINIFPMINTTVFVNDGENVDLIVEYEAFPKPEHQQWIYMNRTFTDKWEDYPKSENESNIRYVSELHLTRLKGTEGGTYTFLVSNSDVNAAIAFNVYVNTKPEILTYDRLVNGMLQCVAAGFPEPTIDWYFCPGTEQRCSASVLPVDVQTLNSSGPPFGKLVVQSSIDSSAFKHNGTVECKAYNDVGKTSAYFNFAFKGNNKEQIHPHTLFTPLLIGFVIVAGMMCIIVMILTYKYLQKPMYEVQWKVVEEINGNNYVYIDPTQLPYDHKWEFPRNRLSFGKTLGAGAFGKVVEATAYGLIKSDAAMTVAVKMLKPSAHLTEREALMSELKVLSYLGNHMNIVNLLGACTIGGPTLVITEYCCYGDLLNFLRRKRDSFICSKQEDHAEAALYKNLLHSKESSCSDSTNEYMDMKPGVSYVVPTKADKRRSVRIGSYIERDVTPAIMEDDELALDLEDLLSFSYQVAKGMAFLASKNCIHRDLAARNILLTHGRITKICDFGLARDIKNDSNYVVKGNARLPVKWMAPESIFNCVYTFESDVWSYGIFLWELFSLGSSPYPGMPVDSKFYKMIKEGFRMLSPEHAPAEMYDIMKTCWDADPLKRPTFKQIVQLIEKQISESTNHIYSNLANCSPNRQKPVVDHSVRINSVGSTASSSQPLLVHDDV
experimental-protocol: c-Kit biochemical assay, AlphaScreen, 10 μM ATP
measurement-context: c-kit biochemical inhibitory activity; read-out: Biochemical activity (IC50 μM) Kit
endpoint: IC50

IN: Fill in: IC50 of CCOc1cccc(-c2[nH]c(C3CCN(c4ncnc5[nH]c(-c6ccnc(OC)c6)cc45)CC3)nc2C)c1 [P-0714] is ___
OUT: 10 to 200 µM

IN: Fill in: IC50 of Cc1ccc(S(=O)(=O)Nc2ccc(-c3ncnc4[nH]c(C)cc34)cc2)cc1 [P-0390] is ___
OUT: 1 to 10 µM

IN: Fill in: IC50 of Cc1cc2c(-c3ccc(NS(=O)(=O)c4ccc(Cl)cc4)cc3F)ncnc2[nH]1 [P-0349] is ___
OUT: 1 to 10 µM

Now for another entry.
IN: Fill in: IC50 of C[C@H](NC(=O)N1CCN(c2ncnc3ccsc23)CC1(C)C)c1cccc(Cl)c1 [P-0682] is ___
OUT: 10 to 200 µM

* * *

target-of-assay: c-kit kinase (Homo sapiens)
Construct: The c-kit (or kinase domain thereof) is an active kinase in AlphaScreen; poly-Histidine tag (in-house protein only) (cleaved yes); host or cells: E. coli BL21(DE3)RIL, co-expressed with PTP1B
experimental-protocol: c-Kit biochemical assay, AlphaScreen, 10 μM ATP
measurement-context: c-kit biochemical inhibitory activity; read-out: Biochemical activity (IC50 μM) Kit
Overview of reported IC50 across a group of molecules:

IN: Fill in: IC50 of COc1cccc([C@H](C)NC(=O)N2CCN(c3ncnc4[nH]c(-c5ccc(Cl)cc5)cc34)C[C@H]2C)c1 [P-0024] is ___
OUT: 1 to 10 µM

IN: Fill in: IC50 of Cc1ccc2sc(S(=O)(=O)NC3CCN(c4ncnc5[nH]c(-c6cnn(C)c6)cc45)CC3)cc2c1 [P-0455] is ___
OUT: 1 to 10 µM

IN: Fill in: IC50 of COc1cc2ncnc(-c3ccc(NS(C)(=O)=O)cc3F)c2cc1OCCCN1CCOCC1 [P-0252] is ___
OUT: 10 to 200 µM

IN: Fill in: IC50 of COc1ccc(S(=O)(=O)Nc2ccc(-c3ncnc4[nH]c(C)cc34)cc2)cn1 [P-0324] is ___
OUT: 1 to 10 µM

IN: Fill in: IC50 of O=C(Nc1ccccc1Cl)N1CCN(c2ncnc3[nH]c(-c4cccnc4)cc23)CC1 [P-0219] is ___
OUT: 10 to 200 µM

Next:
IN: Fill in: IC50 of Cc1ccccc1C(=O)c1c[nH]c2ncnc(N3CCN(c4cc(NC5CC5)ncn4)CC3)c12 [P-0206] is ___
OUT: 10 to 200 µM

IN: Fill in: IC50 of Cn1cc(-c2cc3c(C4=CCC(NS(=O)(=O)c5ccc(OC(F)(F)F)cc5)CC4)ncnc3[nH]2)cn1 (stereo not shown) [P-0285] is ___
OUT: 1 to 10 µM

IN: Fill in: IC50 of COc1ncc(-c2cc3c(N4CCC(NS(=O)(=O)c5ccc(OC(F)(F)F)cc5)CC4)ncnc3[nH]2)cn1 [P-0465] is ___
OUT: 10 to 200 µM

IN: Fill in: IC50 of C[C@H](NC(=O)N1CCN(c2ncnc3[nH]c(-c4ccc(C#N)cc4)cc23)C[C@H]1C)c1ccc(F)cc1 [P-0690] is ___
OUT: 10 to 200 µM

IN: Fill in: IC50 of CCc1ccc(S(=O)(=O)NC2CCN(c3ncnc4[nH]c(-c5cnn(C)c5)cc34)CC2)s1 [P-0665] is ___
OUT: 0.0001 to 1 µM
